- systemUnderTest: Human immunodeficiency virus type 1 integrase (Human immunodeficiency virus 1) (UniProt Q7ZJM1)
- Sequence (Q7ZJM1 as listed by the source): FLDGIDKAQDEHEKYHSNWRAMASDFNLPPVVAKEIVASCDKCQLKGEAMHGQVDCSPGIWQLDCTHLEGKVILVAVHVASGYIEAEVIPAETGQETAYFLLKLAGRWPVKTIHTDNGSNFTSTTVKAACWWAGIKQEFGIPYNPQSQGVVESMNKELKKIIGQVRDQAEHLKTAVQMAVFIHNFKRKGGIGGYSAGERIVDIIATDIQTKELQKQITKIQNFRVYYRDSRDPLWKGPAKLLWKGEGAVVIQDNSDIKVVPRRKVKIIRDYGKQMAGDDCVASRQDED
- testProtocol: Inhibition of HIV-1 integrase assessed as inhibition of interaction of HIV-1 IN with LEDGF/p75 (unknown origin) at 10 uM preincubated with enzyme for 30 mins followed by further incubation with LEDGF/p75 for 1 hr by Alphascreen assay relative to control
Binary call on inhibition: MET from 40% upward, NOT MET beneath that.

Task item: Item Cc1ccc(S(=O)(=O)[C@H]2N=CO[C@@H]2c2ccccc2[N+](=O)[O-])cc1 (racemic) with inhibition of 40% or above?
Reply: NOT MET

Task item: Quick check: does COc1cccc(-c2cncn2Cc2ccccc2)c1 have inhibition greater than or equal to 40%?
Reply: NOT MET

Task item: Reported inhibition at or above 40%? Fc1ccc(-c2cncn2C2CCCCC2)cc1
Reply: MET

Task item: Does the compound CCCCn1cncc1-c1ccc([N+](=O)[O-])cc1 have recorded inhibition that is 40% or more?
Reply: NOT MET

Task item: Would you say CCCCn1cncc1-c1ccc(OC)cc1OC shows inhibition at minimum 40%?
Reply: NOT MET

Task item: Determine whether measured inhibition meets or exceeds 40% for CC(C)(C)c1ccc(-c2cncn2C2CCCCC2)cc1
Reply: MET

Task item: Evaluate COc1ccc(-c2cnco2)c(OC)c1 : inhibition at minimum 40%?
Reply: MET

Task item: Is it the case that COc1ccc(-c2cncn2Cc2ccccc2)c(OC)c1 has inhibition reaching or exceeding 40%?
Reply: NOT MET

Task item: Does the reported inhibition for CCCCn1cncc1-c1ccc(F)cc1 fall at or above the 40% mark?
Reply: NOT MET

----------
Give measured inhibition for each item. Keep answers brief.
- systemUnderTest: Human immunodeficiency virus type 1 integrase (Human immunodeficiency virus 1)
- testProtocol: Inhibition of HIV-1 integrase assessed as inhibition of interaction of HIV-1 IN with LEDGF/p75 (unknown origin) at 10 uM preincubated with enzyme for 30 mins followed by further incubation with LEDGF/p75 for 1 hr by Alphascreen assay relative to control
Kindly provide the numeric value in % only, without the unit symbol.

Task item: Given the molecule CC(C)(C)c1ccc(-c2cnco2)cc1 , what is its reported inhibition?
Reply: 35

Task item: GET /values?readout=inhibition&item= COc1ccc(-c2cncn2-c2ccc(Br)cc2)c(OC)c1
Reply: 52

Task item: Query (molecule): Fc1ccc(-c2cncn2C2CC2)cc1 ; field requested: inhibition
Reply: 31

Task item: Tell me the measured inhibition of c1cc2c(cc1-c1cncn1C1CCCCC1)OCO2 , please.
Reply: 40

Task item: Quick check: inhibition of c1ncc(-c2ccc3c(c2)OCO3)o1 ?
Reply: 35

Task item: I would be grateful if you could share the reported inhibition for Cc1ccc(S(=O)(=O)[C@H]2N=CO[C@@H]2c2ccccc2)cc1 (racemic) .
Reply: 34

Task item: Name the recorded inhibition for COc1cccc(-c2cncn2C2CCCCC2)c1 .
Reply: 55

Task item: For Brc1ccc(-n2cncc2-c2ccc3c(c2)OCO3)cc1 , what is its reported inhibition?
Reply: 48

Task item: What does the data say about its inhibition? Entry: CCCCn1cncc1-c1ccc2c(c1)OCO2
Reply: 35

Task item: Sample CCCCn1cncc1-c1ccc(C(C)(C)C)cc1 — what was its inhibition?
Reply: 56

Task item: Given the entry COc1ccc(-c2cncn2C2CC2)c(OC)c1 , report its measured inhibition.
Reply: 28

Task item: Which inhibition reading was recorded for the molecule c1ccc(-c2cnco2)cc1 ?
Reply: 31

Task item: State the recorded inhibition for this entry: c1ccc(Cn2cncc2-c2ccc3c(c2)OCO3)cc1
Reply: 43

Task item: inhibition lookup needed for CCCCn1cncc1-c1ccccc1Cl , thanks.
Reply: 37

Task item: Suppose we examine the molecule O=[N+]([O-])c1ccc(-c2cnco2)cc1 ; what inhibition value has been reported?
Reply: 33

Task item: GET /values?readout=inhibition&item= CCCCn1cncc1-c1ccccc1[N+](=O)[O-]
Reply: 30

Task item: Consider the molecule Fc1ccc(-c2cncn2-c2ccc(Br)cc2)cc1 and give its measured inhibition.
Reply: 52

Task item: If you can, please state the reported inhibition value of CCCCn1cncc1-c1ccc2c(c1)OCCO2 .
Reply: 21

Task item: What value of inhibition has been reported for the following molecule? COc1cccc(-c2cnco2)c1
Reply: 33

Task item: Look at this molecule and give its reported inhibition. Clc1ccccc1-c1cncn1C1CCCCC1
Reply: 31

Task item: Given the molecule Fc1ccc(-c2cncn2Cc2ccccc2)cc1 , what is its reported inhibition?
Reply: 25

Task item: Can you look up the measured inhibition of COc1cccc(-c2cncn2C2CC2)c1 for me?
Reply: 40

Task item: If you can, please state the reported inhibition value of O=[N+]([O-])c1ccccc1-c1cnco1 .
Reply: 30

Task item: What measured inhibition goes with COc1ccc(-c2cncn2C2CCCCC2)c(OC)c1 ?
Reply: 40

Task item: Given Cc1ccc(S(=O)(=O)[C@H]2N=CO[C@@H]2c2ccc3c(c2)OCO3)cc1 (racemic) , state its recorded inhibition.
Reply: 33

Task item: I am curious: what inhibition value has been reported for Clc1ccccc1-c1cnco1 ?
Reply: 33

Task item: For the molecule Fc1ccc(-c2cnco2)cc1 , what inhibition is on record?
Reply: 23

Task item: Fill blank: measured inhibition of the molecule CCCCn1cncc1-c1cccc(OC)c1 is ____.
Reply: 51
